Every entry's value here was drawn from the FLAb antibody collection (doi:10.1101/2023.12.08.570889).

Attribute: pKd
assay_system: TNFRSF9, Q07011
measurement_notes: Kd (SPR)
pKd: −log10 of the molar value.
property_label: pKd

1. unnamed (protein) chain 1: EVQLVQSGAEVKKPGESLRISCKGSGYSFSTYWISWVRQMPGKGLEWMGKIYPGDSYTNYSPSFQGQVTISADKSISTAYLQWSSLKASDTAMYYCARGWGLFDYWGQGTLVTVSS chain 2: SYELTQPPSVSVSPGQTASITCSGDNIGDQYAHWYQQKPGQSPVLVIYQDKNRPSGIPERFSGSNSGNTATLTISGTQAMDEADYYCATYTGFGSLAVFGGGTKLTVL	7.22
2. unnamed (protein) chain 1: EVQLVQSGAEVKKPGESLRISCKGSGYTFSNYWISWVRQMPGKGLEWMGKIYPGDSYTNYSPSFQGQVTISADKSISTAYLQWSSLKASDTAMYYCARGYGLFDYWGQGTLVTVSS chain 2: SYELTQPPSVSVSPGQTASITCSGDNIGDQYAHWYQQKPGQSPVLVIYQDKNRPSGIPERFSGSNSGNTATLTISGTQAMDEADYYCATYTGFGSLAVFGGGTKLTVL	6.93
3. unnamed (protein) chain 1: EVQLVQSGAEVKKPGESLRISCKGSGYSFSSYWISWVRQMPGKGLEWMGKIYPGDSYTNYSPSFQGQVTISADKSISTAYLQWSSLKASDTAMYYCARGYGLFDYWGQGTLVTVSS chain 2: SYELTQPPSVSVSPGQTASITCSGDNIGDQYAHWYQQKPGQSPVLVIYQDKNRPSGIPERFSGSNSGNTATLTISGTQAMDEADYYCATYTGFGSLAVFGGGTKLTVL	7.29
4. unnamed (protein) chain 1: EVQLVQSGAEVKKPGESLRISCKGSGYTFSSYWISWVRQMPGKGLEWMGKIYPGDSYTNYSPSFQGQVTISADKSISTAYLQWSSLKASDTAMYYCTRGYGLFDYWGQGTLVTVSS chain 2: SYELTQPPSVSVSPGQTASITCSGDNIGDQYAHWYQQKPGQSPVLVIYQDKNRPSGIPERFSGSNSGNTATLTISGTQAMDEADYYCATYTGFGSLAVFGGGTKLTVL	6.96
5. unnamed (protein) chain 1: EVQLVQSGAEVKKPGESLRISCKGSGYSFSTYWISWVRQMPGKGLEWMGKIYPGDSYTNYSPSFQGQVTISADKSISTAYLQWSSLKASDTAMYYCTRGVGLFDYWGQGTLVTVSS chain 2: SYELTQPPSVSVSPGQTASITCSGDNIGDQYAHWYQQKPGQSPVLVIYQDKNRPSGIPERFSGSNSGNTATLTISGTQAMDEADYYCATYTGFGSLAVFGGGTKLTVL	6.85
